Every entry's value here was drawn from paper PMC9352680.

tested.target: T1, PUF4 RNA-binding domain (Saccharomyces cerevisiae, UniProt P25339 537-888)
T1 sequence: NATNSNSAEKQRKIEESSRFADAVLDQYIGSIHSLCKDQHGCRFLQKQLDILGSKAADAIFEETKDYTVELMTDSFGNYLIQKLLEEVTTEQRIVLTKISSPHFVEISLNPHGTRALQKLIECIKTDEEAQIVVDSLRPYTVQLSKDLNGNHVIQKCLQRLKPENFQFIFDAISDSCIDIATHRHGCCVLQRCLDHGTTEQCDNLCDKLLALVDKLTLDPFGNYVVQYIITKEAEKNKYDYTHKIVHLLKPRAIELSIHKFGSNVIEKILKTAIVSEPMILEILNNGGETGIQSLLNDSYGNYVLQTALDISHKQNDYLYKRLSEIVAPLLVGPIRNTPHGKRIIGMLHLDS
assay.procedure: Mg; RNA-MaP; 20 mM Na-HEPES pH 7.4, 30 mM KOAc, 0.75 mM MgCl2, 0.1% Tween-20, 5% glycerol, 0.1 mg/mL BSA, 2 mM DTT; 25 C; 0.0125-409.6 nM protein
conditions: tags: N-His6-TEV cleaved; C-SNAP kept, Cy3B-labelled; label: tethered on chip by stalled RNA polymerase
Here the recorded pKd is given for each entry.
Scale: negative log10 of molar concentration, which is what pKd denotes.

Consider the reported pKd for these binders:
ACAAACAGUAAAUUAACAAAC (ssRNA) [Ib_S3_P4E.1_K4.1_C4.1_H4.1_[T1A]_A4.1_[T5A]_F4.1_T4.1] | 6.22
UCUCUUUGCUCUAUAUUAUCUCUU (ssRNA) [Ie_S1_P4E.1_K4.1_C4.1_H4.1_[+2CTC]_A4.1_F4.1_T4.1] | 6.23

The recorded pKd for entry Id_ii_S2_P3E.3_K3.2_C3.2_[T-1C]_H3.2_A3.1_F3.1_T3.2_[T9C]_[A10T] (ssRNA) RNA: UUUGAUUAAUAUGAUAUCGUUCUUUCUCCUAUAUAUACUUUCUUUCUCGAUAUCAUAUUAAUCUUU equals 6.92
